# key: entry, value: melting point

O=c1cc(N2CCOCC2)oc2cc3ccccc3cc12 [Compound 301, 2-(morpholin-4-yl)-benzo[g]chromen-4-one]	219 °C
C[C@@H]1CN(c2cc(=O)n3ccc4ccccc4c3n2)C[C@H](C)O1 [Compound 13]	208 to 209 °C
O=c1cc(-c2ccc(F)cc2)oc(N2CCOCC2)c1 [Compound 292]	216 to 217 °C
O=c1cc(N2CCOCC2)oc2cc(OCC3CCCCC3)ccc12 [Compound 419]	187 to 188 °C

Alright, here's another molecule for you.
melting point in this record for CC(C)(C)c1ccc(-c2cc(N3CCOCC3)cc(=O)o2)cc1 [Compound 2] : 230 to 232 °C
